# test.protocol: in vitro
# recorded.conditions: CD-1, mouse, liver microsomes
recorded.metric: CLint scaled at 0.75 h, 1 µM
State the value with its unit after it.

Query: Find the measured CLint scaled at 0.75 h, 1 µM of O=C(N[C@@H](Cn1ccnc1)c1ccc(Cl)cc1Cl)c1ccc(-c2nnc(-c3ccc(-c4ccccn4)cc3F)o2)cc1 and report it.
Response: 36.5 mL/min/kg

Query: Hello, please tell me recorded CLint scaled at 0.75 h, 1 µM for this one: O=C(N[C@@H](Cn1ccnc1)c1ccc(Cl)cc1Cl)c1ccc(-c2nnc(-c3ccc(C(F)(F)F)c(F)c3)o2)cc1
Response: 60 mL/min/kg

Query: Could you please provide reported CLint scaled at 0.75 h, 1 µM for O=C(N[C@@H](Cn1ccnc1)c1ccc(Cl)cc1Cl)c1ccc(-c2nnc(-c3cccc(Br)c3)o2)cc1 ? Thanks!
Response: 126 mL/min/kg

Query: Output measured CLint scaled at 0.75 h, 1 µM for this item: O=C(N[C@@H](Cn1ccnc1)c1ccc(Cl)cc1Cl)c1ccc(-c2nnc(-c3ccc(-c4ccccn4)cc3)o2)cc1
Response: 95 mL/min/kg
